- protocol.summary: qHTS assay for cell viability of HEK293 cells (AID 743288); also: % is scaled to controls: 0 for no effect and ±100 for the full control effect; nearly all actives have a fitted effect of over 50% in size
- particulars: ATP luminescence (CellTiter-Glo), 18 h; stronger effect = lower value
Records with an inconclusive call do not appear.
Returns: string. Value is Yes if measured max response is below -20%, and No if it is greater than or equal to it.

Problem: Lab note: max response threshold -20%. Does this compound come in strictly under it? `Brc1ccc(Oc2ccccc2)cc1`
Solution: No

Problem: Moving on to `CCNc1nc(NC(C)C)nc(OC)n1`
Solution: No

Problem: Likewise for `[CH3][Sn]([Cl])([Cl])[Cl]` ?
Solution: No

Problem: Now try `COP(=S)(OC)Oc1c(Cl)cc(C)cc1Cl` .
Solution: No

Problem: Please give the result for `CCCOCC(=Nc1ccc(Cl)cc1C(F)(F)F)n1ccnc1` too.
Solution: Yes

Problem: Quick one: `CSC(=O)c1c(C(F)F)nc(C(F)(F)F)c(C(=O)SC)c1CC(C)C`
Solution: No

Problem: Subsequent entry: CCOP(=S)(Oc1cnc(C(C)(C)C)nc1)OC(C)C (stereo unspecified)
Solution: No

Problem: Same read-out for CC(C)CC(C)Nc1ccc(Nc2ccccc2)cc1 (stereo unspecified) ?
Solution: Yes

Problem: Input CCOP(=S)(OCC)OC(Cl)C(Cl)(Cl)Cl (stereo unspecified)
Solution: No

Problem: What would you report for O=C(O)C1(O)c2ccccc2-c2ccc(Cl)cc21 (stereo unspecified) ?
Solution: No

Problem: Do the same for CCC/C(=N\OCC)C1=C(O)CC(CC(C)SCC)CC1=O (stereo unspecified) please
Solution: No

###

- target.under.test: Peroxisome proliferator-activated receptor delta (Homo sapiens) (UniProt Q03181)
- Sequence (Q03181 whole entry, looked up): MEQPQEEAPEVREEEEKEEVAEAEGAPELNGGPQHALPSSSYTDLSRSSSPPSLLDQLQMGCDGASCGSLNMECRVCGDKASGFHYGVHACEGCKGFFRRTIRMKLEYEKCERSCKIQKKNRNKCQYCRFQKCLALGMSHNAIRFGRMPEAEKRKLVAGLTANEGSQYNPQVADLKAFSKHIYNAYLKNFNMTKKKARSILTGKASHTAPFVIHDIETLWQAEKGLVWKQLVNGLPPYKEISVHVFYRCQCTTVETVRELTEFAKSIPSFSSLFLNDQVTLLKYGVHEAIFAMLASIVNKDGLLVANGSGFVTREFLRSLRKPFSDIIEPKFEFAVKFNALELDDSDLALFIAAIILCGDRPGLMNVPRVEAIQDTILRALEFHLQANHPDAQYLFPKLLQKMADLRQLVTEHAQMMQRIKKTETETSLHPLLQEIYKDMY
- protocol.summary: qHTS assay for small molecule agonists of peroxisome proliferator-activated receptor delta signaling (AID 588534);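 also: 0% = DMSO basal wells and 100% = positive control agonist at 10 µM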
- particulars: HEK293T PPARdelta-UAS-bla, beta-lactamase ratio, 18 h; series mostly up to 76.7 µM
Records with an inconclusive call do not appear. Active and inactive are the calls of the source. The call rests on the fitted dose curve.
outcome.measure: outcome

# example entries with known answers
Cc1cccc(C(=O)O)c1; inactive
CC(C)=CCl; inactive
CCOc1ccc(NC(C)=O)cc1N; inactive
O=C(O)c1c(Cl)cccc1Cl; inactive
CC(C1CC1)C(O)(Cn1cncn1)c1ccc(Cl)cc1 (stereo not drawn); inactive

Turning to the following compound.
Problem: Name the reported outcome value associated with the compound `CC(C)CCCCCCOC(=O)c1ccccc1C(=O)OCCCCCCC(C)C`
Solution: inactive

###

- Tested on: C2A
- protocol.summary: qHTS profiling for inhibitors of Plasmodium falciparum proliferation (AID 504749); also: nearly all actives have a fitted effect of over 60% in size
- particulars: P. falciparum in erythrocytes, SYBR Green DNA, 72 h; series mostly up to 28.7 µM
- Experimental: NIH National Institute of Allergy and Infectious Diseases [NIAID] NIH Chemical Genomics Center [NCGC] […] Because mature erythrocytes lack DNA, only Plasmodium-derived DNA is detected. NCGC Assay Protocol Summary: The SYBR Green viability assay was adapted from a method described previously (Plouffe et al., 2008). […] The following morning, fluorescence intensity at 485(14) nm excitation and 535(25) nm emission wavelengths was measured on an EnVision (Perkin Elmer) plate reader. […]
Results filed as inconclusive are left out. Active and inactive are the calls of the source. The call rests on the fitted dose curve; in most records, active means well fitted inhibition curve with a large enough effect; inconclusive means small, poorly fitted or top-dose-only effect; inactive means flat fitted curve, though single readings scatter.
Your reply should match one of these outcome classes. label 1 (active), label 0 (inactive)

Problem: Call for entry C=CC[N+]1(C)CCC23c4c5ccc(O)c4O[C@H]2C(=O)CC[C@@]3(O)C1C5 (stereo not given in full) :
Solution: label 0

Problem: Here is the next compound: CCCCCc1cc(O)c2c(c1)OC(C)(C)C1CC=C(C)CC21 (stereo not given)
Solution: label 1

Problem: Can you handle CC1CC[C@@]2(NC1)OC1CC3C4CC[C@@H]5CC(O)CC[C@@]5(C)C4CC[C@]3(C)C1C2C (stereo not given in full) next?
Solution: label 0

Problem: Similarly, `CN(C)[C@@H](Cc1ccccc1)c1ccccc1` ?
Solution: label 0

Problem: Next: `[S]=[Sb][S][Sb]=[S]`
Solution: label 0

Problem: Same question, `C[C@@H](N)[C@@H](O)c1ccc(O)c(O)c1` this time
Solution: label 0

Problem: Do the same for CCCC(C)C1(CC)C(=O)NC(=S)NC1=O (stereo not given) please
Solution: label 0

Problem: Could you do the same for OCC(O)[C@H]1O[C@@H]2O[C@H](C(Cl)(Cl)Cl)O[C@@H]2[C@H]1O (stereo not given in full) , please?
Solution: label 0

Problem: Ok, now `Nc1nc(O)c(-c2ccccc2)o1`
Solution: label 0

Problem: Can you handle O=[N+]([O-])OC1CO[C@H]2C(O[N+](=O)[O-])COC12 (stereo not given in full) next?
Solution: label 0
